EC50 values for the compounds below.
Molecular target: alpha2B receptor (Homo sapiens, UniProt P18089)
Sequence (P18089 1-450): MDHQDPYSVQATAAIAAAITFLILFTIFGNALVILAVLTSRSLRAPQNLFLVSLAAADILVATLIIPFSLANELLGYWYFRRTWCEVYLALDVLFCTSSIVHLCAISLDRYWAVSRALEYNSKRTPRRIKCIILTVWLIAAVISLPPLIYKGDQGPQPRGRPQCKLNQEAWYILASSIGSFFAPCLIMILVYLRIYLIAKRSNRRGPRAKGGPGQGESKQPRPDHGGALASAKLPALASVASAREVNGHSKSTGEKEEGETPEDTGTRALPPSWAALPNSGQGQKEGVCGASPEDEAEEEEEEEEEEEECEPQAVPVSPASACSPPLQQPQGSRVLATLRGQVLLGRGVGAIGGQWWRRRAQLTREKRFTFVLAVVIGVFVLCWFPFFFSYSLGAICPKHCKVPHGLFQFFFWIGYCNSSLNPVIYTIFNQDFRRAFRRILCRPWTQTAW
Assay: RSAT assay (Receptor Selection and Amplification Technology), alpha2B
Conditions: RSAT, NIH-3T3 cells cotransfected with receptor and Gq/i5; ND = not determinable at concentrations less than 10 micromolar; read-out: Alpha 2B EC50
MEASURED_ATTRIBUTE: EC50 (nM)

c1cnc2c(c1)CCCC2NC1=NCCO1 (centres unmarked)	545
c1cnc2c(n1)CCCC2NC1=NCCO1 (centres unmarked)	271

Origin of the recorded values: patent US8486969B2
